Test system: SK-MEL-5
Test: NCI tumour cell line growth inhibition, 48 h
Active and inactive are the calls of the source. Rule as the data show it: active = GI50 up to about 1.1 µM and inactive = higher.
Outcomes you can answer with include only these: 1 = active, 0 = inactive

Sample answers from the record:
INSERT INTO assay_data (compound, classlabel) VALUES
  ('O=C(O)CCCc1ccc(N(CCCl)CCCl)cc1 [CHLORAMBUCIL]', 0),
  ('N#Cc1cc([N+](=O)[O-])ccc1NC(=O)C(=O)Nc1n[nH]c(N)n1', 0),
  ('CC(=O)Oc1c2c(c(CC=C(C)C)c3c1C(=O)C1=C[C@@H]4CC5C(C)(C)OC(C/C=C(/C)C(=O)O)(C4=O)[C@@]15O3)OC(C)(CCC=C(C)C)C=C2 (stereo not given in full)', 1);

Returns: the outcome recorded for N#Cc1sc2c(c1OC(=O)c1ccc(C(F)(F)F)cc1)c(=O)n(-c1ccccc1)c(=S)n2-c1ccccc1 in this assay.
0

And the next one, CC1=NN(c2nc(N)nc(CSc3cc(Cl)c(C)cc3S(N)(=O)=O)n2)C(C)(C)C1 ?
0

And then COC(=O)C1=C(C(=O)OC)SC(=C2c3ccsc3-c3sccc32)S1 , what is it?
0

---

Tested on: UO-31
Assay: NCI tumour cell line growth inhibition, 48 h
Calls of active or inactive are those of the source. Rule as the data show it: active = GI50 up to about 1.1 µM and inactive = higher.
Would you mind telling me the reported GI50 of each entry?

# per-item lookup of GI50; items listed below
1. COc1ccc2c(c1)C1Oc3ccccc3CC1CO2 (stereo unspecified)
2. CCOC(=O)C(C(N)=O)C1=Nc2cc([N+](=O)[O-])ccc2N/C1=C\C(=O)c1ccccc1 (stereo unspecified)
3. CCC(C)C(NC(=O)c1c2ccccc2nc2ccccc12)C(=O)O (stereo unspecified)

1. 22.3 µM (inactive)
2. 19.5 µM (inactive)
3. 25.1 µM (inactive)

---

System: HL-60
Assay: NCI tumour cell line growth inhibition, 48 h
Active and inactive are the calls of the source. Rule as the data show it: active = GI50 up to about 1.1 µM and inactive = higher.
Kindly supply the reported GI50 values for the records listed here.

INSERT INTO results (molecule, measvalue) VALUES
  ('CCCN(CCC)C(=S)Sc1nc(C)nc(N2CCN(c3nc(C)nc(SC(=S)N(CCC)CCC)c3[N+](=O)[O-])CC2)c1[N+](=O)[O-]', '3.1 µM (inactive)'),
  ('O=C1Nc2ccccc2C1Cc1ccccc1 (stereo not given)', '> 100 µM (inactive)'),
  ('O=C1c2cccc3cc([N+](=O)[O-])cc(c23)C(=O)N1Nc1ccc([N+](=O)[O-])cc1[N+](=O)[O-]', '4.23 µM (inactive)'),
  ('Cc1cc2nc(N3C(=O)/C(=C/Cc4ccco4)N=C3c3ccccc3)sc2cc1C', '23 µM (inactive)');

Here is another molecule to look at.
Return GI50 measured with HL-60 given this molecule: CN1C(=O)[C@](C)(Cc2ccc(F)cc2)N(C(=O)OC(C)(C)C)[C@@H]1C(C)(C)C
11.4 µM (inactive)

---

Test system: UACC-257
Experiment: NCI tumour cell line growth inhibition, 48 h
Calls of active or inactive are those of the source. No stated cut-off is given here; in the data, active = GI50 up to about 1.1 µM and inactive = higher.
Kindly state GI50 for each of the entries shown.

Look over these answered cases.
INSERT INTO assay_data (compound, propertymeasured, measvalue) VALUES
  ('CC(=O)c1c2c(cc3c1CC1(Cc4cc5c(cc4C1)CCCC5)C3)CCCC2', 'GI50', '13 µM (inactive)'),
  ('O=c1[nH]nc(Cc2c[nH]c3ccccc23)o1', 'GI50', '> 100 µM (inactive)');

Below are 6 compounds. Give each one its GI50.
1. O=C1c2ccccc2CCC1C(O)(C(F)(F)F)C(F)(F)F (configuration not stated)
2. S=c1sc2c(Cl)ncnc2n1-c1ccccc1
3. N=C(/C=C/c1ccc(-c2cn3cc(/C=C/C(=N)N4CCOCC4)ccc3n2)cc1)N1CCOCC1
4. COc1ccc([S+]([O-])Cc2cc(OC)c(OC)c(OC)c2)cc1 (configuration not stated)
5. O=C1/C(=C/Cc2ccco2)N=C(c2ccccc2)N1c1nc2ccc(Sc3ccccc3)cc2[nH]1
6. COc1cccc2ccc3c(c12)C(=O)OC31CCc2c(C)cccc21 (configuration not stated)

1: > 100 µM (inactive); 2: 15.5 µM (inactive); 3: > 100 µM (inactive); 4: > 100 µM (inactive); 5: 17.7 µM (inactive); 6: 23.4 µM (inactive)

Quick request: GI50 for each listed item, please.
1. COc1cc(C2c3cc4c(cc3[C@@H](NCCN3CCCCC3)C3COC(=O)[C@H]23)OCO4)cc(OC)c1O (some centres not stated)
2. Cc1cn(C2CC(N=[N+]=[N-])C(CO[Si](C)(C)C(C)(C)C)O2)c(=O)[nH]c1=O (configuration not stated)
3. O=S(O)CCCCSSCc1ccccc1CSSCCCCS(=O)O

2.93 µM (inactive)
21.6 µM (inactive)
3.87 µM (inactive)

# return GI50 for each item in the list
1. CCN(CC)CCNc1c(OC)cc(C)c2sc3ccccc3c(=O)c12
2. Cc1ccc(NC(=O)CC(=O)N2N=C(N(C)c3ccccc3)CC2c2ccccc2)cc1 (configuration not stated)
3. O=C1CC23CCCCCCCCCCC2(C1)CC(=O)C3 (configuration not stated)
4. COC(=O)[C@]1(c2cc3ccccc3[nH]2)CC2CN(C(=O)OCc3ccccc3)C1C=C2OC (some centres not stated)
5. O=C1c2ccccc2C(=O)c2c(Nc3ccc4c5c(cccc35)C(=O)c3ccccc3-4)cccc21
6. O=C(Cn1c2ccc(Br)cc2c2nc3ccccc3nc21)N1CCOCC1

1. 1.82 µM (inactive)
2. > 100 µM (inactive)
3. 34.8 µM (inactive)
4. 23 µM (inactive)
5. > 100 µM (inactive)
6. > 100 µM (inactive)

# batch: return GI50 for each of the 5 compounds below
1. C(=N\c1nc2cc3sc(/N=C/c4ccccc4)nc3cc2s1)/c1ccccc1
2. CC(C)=C[C@H]1CCC2(OCCO2)[C@]1(C)COCc1ccccc1
3. O=C(/C=C/c1ccccc1)Nc1ccccc1SCCCCl
4. COc1nc(N)nc2c1ncn2C1CC(O)C(CO)O1 (configuration not stated)
5. Oc1ccc(C(c2ccc(O)cc2)c2ccc(O)cc2)cc1

1. > 100 µM (inactive)
2. 16.4 µM (inactive)
3. 18.2 µM (inactive)
4. > 100 µM (inactive)
5. 20.4 µM (inactive)
